The reported measurements were obtained from PubChem BioAssay (NCI).

# Test system: HT29 colon
# ASSAY_REMARKS: NCI tumour cell line growth inhibition, 48 h
RECORDED_METRIC: TGI

| COMPOUND | TARGET_DESC | TGI |
| --- | --- | --- |
| COc1cc(C(=O)/C=C/c2c(-c3cccs3)nc3sc(C)cn23)cc(OC)c1OC | HT29 colon | > 100 µM |
| CC(C)(Cl)C(Cl)CC/C(CBr)=C(\Cl)CCl (configuration not stated) | HT29 colon | 14.7 µM |
| Cc1ccnc(NS(=O)(=O)c2ccc(NC3=CC(=O)C(=O)c4ccccc43)cc2)n1 | HT29 colon | > 100 µM |

I need TGI for every entry listed below, if you could help.
1. COc1ccc(-c2cc(=O)c3c(O)c(OC)c(O)c(OC)c3o2)cc1OC
2. C=CCN(C(=O)OC(C)(C)C)C1=CC2C(C)=CN(S(=O)(=O)c3ccccc3)C2C(OCc2ccccc2)=C1 (configuration not stated)
3. CCN(CC)c1ccc(N=O)cc1
4. COc1ccccc1N1C(=O)C2C3c4ccccc4C(OC(C)=O)(c4ccccc43)C2C1=O (configuration not stated)
5. N#CCCC(CC#N)N1CCN(C(CC#N)CCC#N)CC1 (configuration not stated)
6. COC(=O)[C@@H](Nc1ccccc1)[C@@]1(C(=O)OC)SC12c1ccccc1-c1ccccc12
7. CC/C(CC(=O)CCC(=O)Nc1c(C)cccc1C)=N\NC(=O)NN

["> 100 µM", "> 100 µM", "4.3 µM", "> 100 µM", "> 100 µM", "> 100 µM", "> 100 µM"]

* * *

# System: OVCAR-5 ovarian
# ASSAY_REMARKS: NCI tumour cell line growth inhibition, 48 h; in the data active = GI50 below about 0.43 µM; inactive = the rest
Hi there, use one of these labels in your reply, thanks! y = active, n = inactive

Recorded results for 3 compounds are shown here.
| SMILES | TARGET_DESC | QUALITATIVE_LABEL |
| --- | --- | --- |
| COc1cc(C(=O)/C=C/c2c(-c3cccs3)nc3sc(C)cn23)cc(OC)c1OC | OVCAR-5 ovarian | n |
| CC1(C)CCC(S(=O)(=O)c2ccc3c(c2)/C(=N\O)c2cc(S(=O)(=O)N4CCN(c5ccc(F)cc5O)CC4)ccc2-3)CC1 | OVCAR-5 ovarian | y |
| O=c1c2cc(I)ccc2nc(-c2cccs2)n1-c1ccc(S(=O)(=O)Nc2nccs2)cc1 | OVCAR-5 ovarian | n |

So what was the verdict on Cc1c(NC(=O)c2cc(C(N)=O)nc3cc(F)ccc23)c(C(F)(F)F)nn1Cc1ccc(C#N)cc1 in this test? n

* * *

# System: TK-10 renal
# ASSAY_REMARKS: NCI tumour cell line growth inhibition, 48 h; in the data active = GI50 below about 0.43 µM; inactive = the rest
Returns: one label drawn from active, inactive

Below are worked cases with known answers.
| MOLECULE | QUALITATIVE_LABEL |
| --- | --- |
| CC[C@]12C=CCN3CC[C@]4(C(=C(C(=O)OC)C1)Nc1cc(OC)c(OC(C)=O)cc14)[C@@H]32 | inactive |
| CCN(CC)c1ccc(N=O)cc1 | inactive |
| CC#Cc1nc2ccccc2c(=O)[nH]1 | inactive |

What outcome does the record of this test show for CCCCCCCCCCCCCCCCCCOP(=O)([O-])OC1CC[N+](C)(C)CC1 ? inactive
